// data source = BindingDB's records for doi:10.1021/jm900106f

# experimental target: Zinc finger protein GLI1 (Homo sapiens, UniProt P08151)
# Sequence (P08151 whole entry): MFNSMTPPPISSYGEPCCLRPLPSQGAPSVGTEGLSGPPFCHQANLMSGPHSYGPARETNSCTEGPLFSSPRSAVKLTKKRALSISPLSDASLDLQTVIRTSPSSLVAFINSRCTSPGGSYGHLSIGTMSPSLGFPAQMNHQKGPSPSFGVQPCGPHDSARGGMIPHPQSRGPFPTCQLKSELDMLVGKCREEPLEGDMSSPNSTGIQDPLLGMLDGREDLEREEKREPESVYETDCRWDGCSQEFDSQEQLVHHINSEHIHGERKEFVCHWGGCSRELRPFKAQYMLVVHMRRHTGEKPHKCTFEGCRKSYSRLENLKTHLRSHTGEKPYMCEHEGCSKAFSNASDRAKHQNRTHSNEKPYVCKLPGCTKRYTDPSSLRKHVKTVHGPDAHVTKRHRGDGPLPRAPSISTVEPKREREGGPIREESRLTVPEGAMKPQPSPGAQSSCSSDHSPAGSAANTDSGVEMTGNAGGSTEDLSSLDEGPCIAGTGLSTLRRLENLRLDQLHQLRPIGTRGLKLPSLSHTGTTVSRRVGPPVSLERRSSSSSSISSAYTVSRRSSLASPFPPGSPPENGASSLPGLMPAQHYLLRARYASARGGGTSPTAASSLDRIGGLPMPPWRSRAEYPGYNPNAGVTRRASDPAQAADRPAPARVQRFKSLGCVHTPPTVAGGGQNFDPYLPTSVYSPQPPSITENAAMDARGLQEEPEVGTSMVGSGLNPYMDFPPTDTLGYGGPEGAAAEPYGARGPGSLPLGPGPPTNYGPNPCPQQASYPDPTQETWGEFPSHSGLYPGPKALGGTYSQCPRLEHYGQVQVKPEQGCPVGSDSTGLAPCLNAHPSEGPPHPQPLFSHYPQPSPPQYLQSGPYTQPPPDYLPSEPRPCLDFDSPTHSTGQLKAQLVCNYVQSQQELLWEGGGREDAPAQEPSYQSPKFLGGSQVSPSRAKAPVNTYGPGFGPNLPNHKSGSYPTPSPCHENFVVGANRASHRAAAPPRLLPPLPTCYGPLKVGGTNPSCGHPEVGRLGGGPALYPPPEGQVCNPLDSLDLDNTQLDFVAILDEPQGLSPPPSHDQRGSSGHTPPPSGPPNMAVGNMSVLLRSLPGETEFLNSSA
# assay text: Inhibition of exogenously transfected human Gli1-mediated transcriptional activity in mouse C3H10T1/2 cells after 24 hrs by luciferase reporter gene assay
pIC50: −log10 of the molar value.
assay readout: pIC50

CCCN(CCc1ccc(O)cc1)C(=O)[C@@H](C)c1cccc(C(=O)c2ccccc2)c1 ... 5.16
C[C@H](C(=O)NCCc1ccc(O)cc1)c1cccc(C(=O)c2ccccc2)c1 ... 4.94
C[C@H](C(=O)N(CCc1ccc(O)cc1)CCc1ccc(O)cc1)c1cccc(C(=O)c2ccccc2)c1 ... 5.03
